experiment: Quantitative High-Throughput drug screen in 47 multiple myeloma cell lines against the NCATS MIPE library collection: EJM_DSMZ cell viability assay (AID 1918926; also: potency is read from the fitted curve at half-maximal effect; nearly all actives have a fitted effect of over 30% in size); details: EJM myeloma cell viability, CellTiter-Glo ATP, 48 h; series mostly up to 45.8 µM
Inconclusive results are not listed. The source made the active and inactive calls. Calls follow the shape of the dose curve; as a rule, active = well fitted cell-killing curve with a large enough effect; inconclusive = small, poorly fitted or top-dose-only effect, or effect the other way; inactive = no such curve, though single readings can be large or run the other way.
Attribute Measured: Potency

| Compound | Potency |
| --- | --- |
| CNC(=O)c1cc(Oc2ccc(NC(=O)Nc3cc(C(C)(C)C)nn3-c3ccc4ncccc4c3)c(F)c2)ccn1 | 6.62 µM (active) |
| CC(C)c1cc(C(=O)N2Cc3ccc(CN4CCN(C)CC4)cc3C2)c(O)cc1O | 1.48 µM (active) |
| Cc1cc(N2CCOCC2)cc2[nH]c(-c3c(NC[C@@H](O)c4cccc(Cl)c4)cc[nH]c3=O)nc12 | 0.235 µM (active) |
| CC(=O)Nc1sc2c(c1-c1nc3ccccc3s1)CNC2 | 23.5 µM (active) |
| Cc1cc(Nc2cc(NC(=O)c3c(Cl)cccc3Cl)ccn2)nc(N)n1 | 16.6 µM (active) |

**Query** What value of measured Potency is listed for CNC(=O)c1c(F)cccc1Nc1nc(Nc2cc3c(cc2OC)CCN3C(=O)CN(C)C)nc2[nH]ccc12 ?
**Result** 0.209 µM (active)

**Query** What value of measured Potency is listed for c1nc2nc(Nc3ccc(N4CCOCC4)cc3)nc(NC3CCCCC3)c2[nH]1 ?
**Result** 14.8 µM (active)

**Query** What value of measured Potency is listed for COc1cc(C(C)C)c2c(c1)S(=O)(=O)N(COc1cc(=O)n3cccc(OCCN4CCCCC4)c3n1)C2=O ?
**Result** 18.7 µM (active)

----------
test system: Zika virus NS2B-NS3 protease (unlinked complex); test: Confirmatory screen GU AMC qHTS for Zika virus inhibitors (AID 1347153); conditions: Recombinant NS2B-NS3 protease, AMC substrate fluorescence; series mostly up to 57.1 µM; also: nearly all actives have a fitted effect of over 70% in size;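 as to Potency: enzyme at 25 nM with substrate at 10 µM below its Km of 18.3 µM; potency is read from the fitted curve at half-maximal effect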
Inconclusive results are not listed. Active and inactive are the calls of the source. The call rests on the fitted dose curve; in most records, active means well fitted inhibition curve with a large enough effect; inconclusive means small, poorly fitted or top-dose-only effect; inactive means flat fitted curve, though single readings scatter.
Attribute Measured: Potency

| Smiles Record | Attribute Measured | Value Observed |
| --- | --- | --- |
| O=C(Nc1cc(C(F)(F)F)cc(C(F)(F)F)c1)c1cc(Cl)ccc1O | Potency | 49.4 µM (active) |
| CCN1CCN(Cc2ccc(-c3cc4c(N[C@H](C)c5ccccc5)ncnc4[nH]3)cc2)CC1 | Potency | 49.4 µM (active) |
| CCN(CC)CCCCNc1ncc2cc(-c3cc(OC)cc(OC)c3)c(NC(=O)NC(C)(C)C)nc2n1 | Potency | inactive |
| N#Cc1c(O)c2c(-c3ccc(-c4ccccc4O)cc3)csc2[nH]c1=O | Potency | 9.61 µM (active) |
| CC(C)c1ccccc1Cc1cc(C(=O)Nc2ccc(S(=O)(=O)c3ccccc3C(C)(C)C)cc2)c(O)c(O)c1O | Potency | inactive |

**Query** What value of measured Potency is listed for C[C@@]12O[C@@H](C[C@]1(O)CO)n1c3ccccc3c3c4c(c5c6ccccc6n2c5c31)CNC4=O ?
**Result** 24.1 µM (active)

**Query** What value of measured Potency is listed for Cc1c(C)n(Cc2ccc(-c3ccccc3C(=O)O)cc2)c2ccc(C(=O)N[C@@H](C)c3ccc([N+](=O)[O-])cc3)cc12 ?
**Result** 21.5 µM (active)
